System: Vero
experiment.description: Concentration that reduced plaque formation by 50% was measured in HSV-2 infected vero cells in vitro
Assay type: functional, cell-based
condition: Chlorocebus sabaeus
For each entry below, report its IC50 value.
Numbers only here, please. The scale is µM.

Given CC(C)(C)C(=O)OCOP(=O)(COCCn1cnc2c(N)ncnc21)OCOC(=O)C(C)(C)C , state its recorded IC50.
0.6

Check CC(C)(C)C(=O)OCOP(=O)(O)COCCn1cnc2c(N)ncnc21 too.
22

Entry Nc1ncnc2c1ncn2CCOCP(=O)(Oc1ccccc1)Oc1ccccc1 please
77

And Nc1ncnc2c1ncn2CCOCP(=O)(O)O ?
119

Same for CCC(=O)OCOP(=O)(COCCn1cnc2c(N)ncnc21)OCOC(=O)CC
0.4

Okay, and Nc1ncnc2c1ncn2CCOCP(=O)(O)Oc1ccccc1 ?
95

* * *

experiment.description: Oral bioavailability of compound in rat
Type: ADME, organism-based
condition: in vivo, read-out: Bioavailabiility
quantity: bioavailability
Reply with the number, then its unit.

Requested read-out: bioavailability. Entry: Nc1ncnc2c1ncn2CCOCP(=O)(O)O
11%

* * *

experiment.description: Bioavailability in rat of PMEA prodrug
Format: ADME, organism-based
condition: in vivo
Give measured F for each item. Keep answers brief.
Write the value in % as a bare number.

Recorded F for Nc1ncnc2c1ncn2CCOCP(=O)(O)OCC(Cl)(Cl)Cl , please?
2.5

Then this compound: Nc1ncnc2c1ncn2CCOCP(=O)(OCC(Cl)(Cl)Cl)OCC(Cl)(Cl)Cl
10.6

One more compound: Nc1ncnc2c1ncn2CCOCP(=O)(OCc1ccc([N+](=O)[O-])cc1)OCc1ccc([N+](=O)[O-])cc1
1.7

For CC(C)(CO)COP(=O)(O)COCCn1cnc2c(N)ncnc21 then?
0

Another compound: CC(C)OP(=O)(O)COCCn1cnc2c(N)ncnc21
5

Next compound up: Nc1ncnc2c1ncn2CCOCP1(=O)OCCCO1
0.7

Would you mind doing CC(C)(CN)CNP(=O)(O)COCCn1cnc2c(N)ncnc21 as well?
10.6

Request: CCOP(=O)(COCCn1cnc2c(N)ncnc21)OCOC(=O)C(C)(C)C (centres undefined)
34.9

Note, next up: Nc1ncnc2c1ncn2CCOCP(=O)(O)Oc1ccccc1
14

Now this one: CCOP(=O)(O)COCCn1cnc2c(N)ncnc21
0

Same question for CC(=O)OCC(=O)COC(C)=O please.
5.8

How about Nc1ncnc2c1ncn2CCOCP(=O)(O)OCc1ccc([N+](=O)[O-])cc1 ?
1.9

Also check Nc1ncnc2c1ncn2CCOCP(=O)(O)OCC(F)(F)CO
3.5

Same thing, different compound: CCN(CC)C(=O)COP(=O)(COCCn1cnc2c(N)ncnc21)OCOC(=O)C(C)(C)C (centres undefined)
2.2

And COP(=O)(COCCn1cnc2c(N)ncnc21)OC ?
0

Entry CC(C)OP(=O)(COCCn1cnc2c(N)ncnc21)OC(C)C please
44.4

Now consider CCN(CC)C(=O)COP(=O)(O)COCCn1cnc2c(N)ncnc21 .
3.5

One more compound: CC(C)(C)C(=O)OCOP(=O)(COCCn1cnc2c(N)ncnc21)OCOC(=O)C(C)(C)C
17.3

Now the same for CC1(C)CNP(=O)(COCCn2cnc3c(N)ncnc32)NC1
5.8

Next record, please: CCOP(=O)(COCCn1cnc2c(N)ncnc21)OCC
42

How about CC(C)(C)C(=O)OCOP(=O)(O)COCCn1cnc2c(N)ncnc21 ?
6.5

Further, for Nc1ncnc2c1ncn2CCOCP(=O)(O)O ?
7.8

Record: CCN(CC)P(=O)(COCCn1cnc2c(N)ncnc21)N(CC)CC
7.2

Next entry: CC1(C)COP(=O)(COCCn2cnc3c(N)ncnc32)OC1
0

Same thing, different compound: COP(=O)(O)COCCn1cnc2c(N)ncnc21
1.4

# repeat for CC(C)COP(=O)(COCCn1cnc2c(N)ncnc21)OCC(C)C
0

Here is the next compound: Nc1ncnc2c1ncn2CCOCP(=O)(Oc1ccccc1)Oc1ccccc1
11.1

Also CCCCCCCCOP(=O)(O)COCCn1cnc2c(N)ncnc21 , if possible.
0.8

Same thing, different compound: CC(C)CCOP(=O)(COCCn1cnc2c(N)ncnc21)OCCC(C)C
0.5
